# experiment.notes: inhibitors of Sendai virus-induced IRF3 signaling, primary screen, TLR/RLR signaling modifier project, cell-based, Sendai virus stimulus, luciferase, 10K MLSCN set (AID 602276);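 further: firefly luciferase from ISG56 promoter only with Renilla not read in this screen; 0% = Sendai virus plus DMSO and 100% = medium plus DMSO without virus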
# test.settings: HEK293 RL24 IRF3 luciferase reporter, at 10 µM, hits give high values
endpoint.label: inhibition (%)
Write the value in % as a bare number.

Past entries and their recorded results:
compound	value.units	inhibition
CCOc1nc(SCCOc2ccccc2)nc(N(C)C)n1	%	0.0705
O=C(C1CCCCC1)N1CC(=O)N2CCc3ccccc3C2C1 (stereo unspecified)	%	8.76
CCOC(=O)Cc1nnc(Nc2cccc(O)c2)c2ccccc12	%	0.504
COc1ccccc1C1C(C#N)=C(N)Oc2cc(C)n(Cc3ccccn3)c(=O)c21 (stereo unspecified)	%	-7.32
COc1ccc2c(c1)[nH]c1c(=O)n(CC3CCCO3)cnc12 (stereo unspecified)	%	-17.6

Supply measured inhibition of COC(=O)CC1SC(=O)NC1=O (stereo unspecified) in your reply.
1.46
